For each entry below, report its interaction score value.
Target: T1, 4H2438-AA
T1 chain: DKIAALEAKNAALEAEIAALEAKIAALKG
Test: two-hybrid library CCmax;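 further: natural log of median RNA to DNA barcode read ratio; higher means stronger binding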
Conditions: mean of both orientations
A bare number is all that is needed in reply.

What does the record list as interaction score for DKIAALEAKIAALKAENAALEAKIAALEG [4H2389-AA] ?
-0.27

DKIAALEAEIAALKAKNAALEAEIAALKG [4H2162-AA] ?
-0.363

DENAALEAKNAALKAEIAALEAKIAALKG [4H1478-AA] ?
-0.717

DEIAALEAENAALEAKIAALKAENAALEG [4H171-AA] ?
0.734

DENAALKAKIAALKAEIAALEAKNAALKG [4H1864-AA] ?
0.434

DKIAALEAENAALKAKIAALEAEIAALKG [4H2274-AA] ?
0.189

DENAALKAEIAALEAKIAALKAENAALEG [4H1579-AA] ?
-1.18
